# tested_system: T1, biotin-MYC3(44-238) (Arabidopsis, UniProt Q9FIP9 44-238, biotin (site not stated))
# T1 sequence (looked up): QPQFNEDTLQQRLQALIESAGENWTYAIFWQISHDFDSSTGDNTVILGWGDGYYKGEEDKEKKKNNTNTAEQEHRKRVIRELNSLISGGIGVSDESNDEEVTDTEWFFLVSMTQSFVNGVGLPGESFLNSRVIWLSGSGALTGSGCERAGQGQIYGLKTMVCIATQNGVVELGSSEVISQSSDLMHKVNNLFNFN
# assay_explanation: AlphaScreen or HTRF
parameter: IC50

Problem: Complete the entry with IC50 for SVPQARKASLARFLEKRKERLM (peptide, UniProt Q8W4J8 218-239, looked up) [Jas22^JAZ9 peptide]
Result: ~420 nM
